# Assay procedure: Pharmacokinetic assays of compounds after oral gavage administration to rats
# Assay type: in vivo, male SD rats
# Cond: male SD rats, oral gavage, 30.0 mg/kg, suspension in 0.5% CMC-Na, plasma
Property measured: AUC(0-t) (µg·h/mL)

Consider the reported AUC(0-t) for these compounds:
Smiles string	Measurement unit	AUC(0-t)
C=CC(=O)N1CCC[C@@H](n2nc(-c3ccc(Oc4ccccc4)cc3)c3c(NC(=O)OCCCC)ncnc32)C1	µg·h/mL	1.3667
C=CC(=O)N1CCC[C@@H](n2nc(-c3ccc(Oc4ccccc4)cc3)c3c(NC(=O)OCCC)ncnc32)C1	µg·h/mL	0.663
C=CC(=O)N1CCC[C@@H](n2nc(-c3ccc(Oc4ccccc4)cc3)c3c(NC(=O)OCC(C)C)ncnc32)C1	µg·h/mL	0.9641

P = C=CC(=O)N1CCC[C@@H](n2nc(-c3ccc(Oc4ccccc4)cc3)c3c(NC(=O)OCCCCCC)ncnc32)C1
Q = C=CC(=O)N1CCC[C@@H](n2nc(-c3ccc(Oc4ccccc4)cc3)c3c(NC(=O)OC(C)C)ncnc32)C1
Data request: Quick one: lower AUC(0-t), P or Q ? Output the label that corresponds to your choice.
Data returned: P

----------
# Assay procedure: Pharmacokinetic assays of compounds after oral gavage administration to rats
# Type: in vivo, male SD rats
# Cond: rat; male SD rats, oral gavage, 30.0 mg/kg, suspension in 0.5% CMC-Na, plasma; read-out: MRT(0-t)
# Description: Example 13: Pharmacokinetic Assays of Compounds Instruments: ultra high performance liquid chromatography (Acquity UPLC, Waters) system; triple quadrupole mass spectrometer (Qtrap 5500, Sciex); high-speed refrigerated centrifuge (5430R, Eppendorf). […] Plasma drug concentration data was processed using MultiQuan 3.0 (Sciex), and pharmacokinetic parameters were calculated using the DAS 2.0 software. Plasma drug concentrations were measured in ug/L.
Property measured: MRT last (h)
Use h as the unit, but write only the number.

Data request: If you can, please state the reported MRT last value of C=CC(=O)N1CCC[C@@H](n2nc(-c3ccc(Oc4ccccc4)cc3)c3c(N)ncnc32)C1 [Compound 4-AAM, reference compound] .
Data returned: 1.7

----------
# Assay procedure: Pharmacokinetic assays of compounds after oral gavage administration to rats
# Format: in vivo, male SD rats
# Cond: rat; male SD rats, oral gavage, 30.0 mg/kg, suspension in 0.5% CMC-Na, plasma; read-out: MRT(0-∞)
Property measured: MRT inf (h)
Use h as the unit, but write only the number.

Data request: If you can, please state the reported MRT inf value of C=CC(=O)N1CCC[C@@H](n2nc(-c3ccc(Oc4ccccc4)cc3)c3c(N)ncnc32)C1 [Compound 4-AAM, reference compound] .
Data returned: 3.4

----------
# Assay procedure: Pharmacokinetic assays of compounds after oral gavage administration to rats
# Format: in vivo, male SD rats
# Cond: rat; male SD rats, oral gavage, 30.0 mg/kg, suspension in 0.5% CMC-Na, plasma
Property measured: AUC(0-inf) (µg·h/mL)
Use µg·h/mL as the unit, but write only the number.

Data request: If you can, please state the reported AUC(0-inf) value of C=CC(=O)N1CCC[C@@H](n2nc(-c3ccc(Oc4ccccc4)cc3)c3c(N)ncnc32)C1 [Compound 4-AAM, reference compound] .
Data returned: 0.822

----------
# Assay procedure: Pharmacokinetic assays of compounds after oral gavage administration to rats
# Format: in vivo, male SD rats
# Cond: male SD rats, oral gavage, 30.0 mg/kg, suspension in 0.5% CMC-Na, plasma
Property measured: VRT(0-t) (h^2)

Compound	Measurement unit	VRT(0-t)
C=CC(=O)N1CCC[C@@H](n2nc(-c3ccc(Oc4ccccc4)cc3)c3c(NC(=O)OCCCCCC)ncnc32)C1	h^2	3.0
C=CC(=O)N1CCC[C@@H](n2nc(-c3ccc(Oc4ccccc4)cc3)c3c(NC(=O)OCCCC)ncnc32)C1	h^2	3.3

1 = C=CC(=O)N1CCC[C@@H](n2nc(-c3ccc(Oc4ccccc4)cc3)c3c(NC(=O)OCCC)ncnc32)C1
2 = C=CC(=O)N1CCC[C@@H](n2nc(-c3ccc(Oc4ccccc4)cc3)c3c(N)ncnc32)C1 [Compound 4-AAM, reference compound]
3 = C=CC(=O)N1CCC[C@@H](n2nc(-c3ccc(Oc4ccccc4)cc3)c3c(NC(=O)OC(C)C)ncnc32)C1
4 = C=CC(=O)N1CCC[C@@H](n2nc(-c3ccc(Oc4ccccc4)cc3)c3c(NC(=O)OCC(C)C)ncnc32)C1
Data request: Arrange the 4 entries by VRT(0-t) so the values rise. The labels, placed in the requested order, form the answer.
Data returned: 2, 4, 3, 1
(2: 2.0 h^2, 4: 2.9 h^2, 3: 4.6 h^2, 1: 7.2 h^2)
